# reported MIC; entries follow
# Test system: Staphylococcus aureus CIP52.1
# TEST_SUMMARY: Minimum inhibitory concentration (MIC), NCCLS dilution antimicrobial susceptibility test
# Type: cell-based
# MEASUREMENT_CONTEXT: Staphylococcus aureus, CIP52, Table II, Example 1; mean of at least three tests; bacteriostatic effect; read-out: MIC RESULTS MEAN
# Procedure: The bacterium Staphylococcus aureus CIP52.1 may be used in order to determine for each test compound the minimum inhibitory concentration for the bacterium, or MIC, expressed in μM. […] Each compound of the invention was tested at least three times. The average of the test results was calculated, along with the standard deviation. […]
// units = µM; emit number, no label

{"columns": ["MOLECULE", "MIC [µM]"],
 "data": [
  ["CCCCCCOc1ccc(C(=O)Nc2ccc(C(=O)O)cc2)cc1C12CC3CC(CC(C3)C1)C2 [Compound 26]", 3.33],
  ["Cc1ccc(-c2ccccc2C=CC#Cc2ccc(C(=O)O)c(O)c2)cc1 [Compound 6]", 1.25],
  ["CC1(C)CCC(C)(C)c2cc3sc(-c4ccc(C(=O)O)cc4)cc3cc21 [Compound 15]", 2.5],
  ["CCCc1ccc(-c2ccccc2C=CC#Cc2ccc(C(=O)O)cc2)cc1 [Compound 21]", 2.5]
]}

Fill in: MIC of COCOc1cccc(C=CC#Cc2ccc(C(=O)O)cc2)c1-c1ccc(C)cc1 [Compound 2] is ___
1.04

Fill in: MIC of COc1cccc(C=CC#Cc2ccc(C(=O)O)cc2)c1-c1ccc(C)cc1 [Compound 3] is ___
1.04

Fill in: MIC of COCCOCOc1ccc(C#Cc2ccc(C(=O)O)c(O)c2)cc1C12CC3CC(CC(C3)C1)C2 [Compound 18] is ___
2.5

Fill in: MIC of COCCOCOc1cc2ccc(-c3ccc(C(=O)O)c(O)c3)cc2cc1C12CC3CC(CC(C3)C1)C2 [Compound 30] is ___
3.33

Fill in: MIC of COc1cc(C)c(-c2cccc(C=CC(=O)O)c2)cc1C12CC3CC(CC(C3)C1)C2 [Compound 45] is ___
5

Fill in: MIC of CCCCOC(c1ccc2c(c1)C(C)(C)CCC2(C)C)c1ccc2cc(C(=O)O)ccc2c1 (stereo not shown) [Compound 24] is ___
3.33
